- Tested on: Coxsackie A21 virus (Cox A21)
- assay.explanation: Tissue culture antiviral testing, Cox A21 (cytopathic effect, HeLa cells)
- Assay type: cell-based
- assay.conditions: HeLa cells, NA = not active at the standard test conditions, read-out: Lowest concentration of the compound necessary to cause a 50 percent reduction in cytopathic effect
measurement.kind: EC50 (µg/mL)
Express it in µg/mL; write the number only.

Query string: Form field: reported EC50 of "N#Cc1cc([N+](=O)[O-])ccc1Oc1ccccc1C(F)(F)F"
Result string: 10

Query string: Further, for "N#Cc1cc([N+](=O)[O-])ccc1Sc1ccc(Cl)cc1" ?
Result string: 1.6

Query string: Further, for "N#Cc1cc([N+](=O)[O-])ccc1Oc1ccc(Cl)cc1" ?
Result string: 0.625

Query string: Further, for "Cc1cc(Cl)ccc1Oc1ccc([N+](=O)[O-])cc1C#N" ?
Result string: 12.5

Query string: Further, for "N#Cc1cc([N+](=O)[O-])ccc1Oc1ccc(C(=O)c2ccccc2)cc1" ?
Result string: 12.5

Query string: Further, for "N#Cc1cc([N+](=O)[O-])ccc1Oc1c(Cl)ccc(Cl)c1Cl" ?
Result string: 5

###

Could you please report measured EC50 for the items listed next?
- System: rhinovirus type 5 (RV-5)
- assay.explanation: Tissue culture antiviral testing, RV-5 (cytopathic effect, HeLa cells)
- Assay type: cell-based
- assay.conditions: Enterovirus, HeLa cells, read-out: Lowest concentration of the compound necessary to cause a 50 percent reduction in cytopathic effect
Express it in µg/mL; write the number only.

Query string: Form field: reported EC50 of N#Cc1cc([N+](=O)[O-])ccc1Oc1ccc(Cl)c(Cl)c1 [Example 1]
Result string: 0.5

Query string: Further, for Cc1cc(Cl)ccc1Oc1ccc([N+](=O)[O-])cc1C#N [Example 16] ?
Result string: 6.25

Query string: Further, for CC(=O)c1ccc(Oc2ccc([N+](=O)[O-])cc2C#N)cc1 [Example 15, 2-(4-Acetylphenoxy)-5-nitrobenzonitrile] ?
Result string: 6.25

Query string: Further, for N#Cc1cc([N+](=O)[O-])ccc1Oc1cccc(C(F)(F)F)c1 [Example 27] ?
Result string: 0.625

Query string: Further, for N#Cc1cc([N+](=O)[O-])ccc1Oc1c(F)c(F)cc(F)c1F [Example 18] ?
Result string: 1.25

Query string: Further, for COc1cccc(Oc2ccc([N+](=O)[O-])cc2C#N)c1 [Example 13, 2-(3-Methoxyphenoxy)-5-nitrobenzonitrile] ?
Result string: 6.25

Query string: Further, for N#Cc1cc([N+](=O)[O-])ccc1Oc1ccc(C(F)(F)F)cc1 [Example 14] ?
Result string: 2.5

Query string: Further, for N#Cc1cc([N+](=O)[O-])ccc1Oc1cc(Cl)cc(Cl)c1 [Example 25] ?
Result string: 6.25

Query string: Further, for N#Cc1cc([N+](=O)[O-])ccc1Oc1ccc(F)cc1 [Example 21, 2-(4-Fluorophenoxy)-5-nitrobenzonitrile] ?
Result string: 1.25

Query string: Further, for N#Cc1cc([N+](=O)[O-])ccc1Oc1c(Cl)cccc1Cl [Example 24] ?
Result string: 3.12

Query string: Further, for N#Cc1cc([N+](=O)[O-])ccc1Oc1c(Cl)ccc(Cl)c1Cl [Example 31] ?
Result string: 3.12

Query string: Further, for N#Cc1cc([N+](=O)[O-])ccc1Oc1c(F)c(F)c(F)c(F)c1F [Example 19] ?
Result string: 1.25

Query string: Further, for N#Cc1cc([N+](=O)[O-])ccc1Oc1ccc(Cl)cc1Cl [Example 2] ?
Result string: 2.5

###

- assay.explanation: Acute toxicity in rats
- assay.conditions: rat, in vivo, ip, intraperitoneal, read-out: acute toxicity, intraperitoneal administration
measurement.kind: LD50

Query string: Form field: reported LD50 of N#Cc1cc([N+](=O)[O-])ccc1Oc1ccc(Cl)c(Cl)c1 [Example 1]
Result string: > 2000 mg/kg

###

- assay.explanation: Cytotoxicity in tissue culture (HeLa monolayers)
- Assay type: cell-based
- assay.conditions: human; HeLa cells; observed at 48 and 72 hours post-treatment; read-out: Cytotoxicity (concentration of the compound found to be toxic to the cell)
Could you please report measured MCC for the items listed next?

Query string: Form field: reported MCC of Cc1cc(Cl)ccc1Oc1ccc([N+](=O)[O-])cc1C#N [Example 16]
Result string: > 50 µg/mL

Query string: Further, for N#Cc1cc([N+](=O)[O-])ccc1Oc1cc(Cl)ccc1Cl [Example 23] ?
Result string: > 50 µg/mL

Query string: Further, for N#Cc1cc([N+](=O)[O-])ccc1Oc1cc(C(F)(F)F)cc(C(F)(F)F)c1 [Example 28] ?
Result string: ≥ 20 µg/mL

Query string: Further, for CS(=O)(=O)c1ccc(Oc2ccc([N+](=O)[O-])cc2C#N)cc1 [Example 8] ?
Result string: > 100 µg/mL

Query string: Further, for N#Cc1cc([N+](=O)[O-])ccc1Oc1cccc(C(F)(F)F)c1 [Example 27] ?
Result string: 12.5 µg/mL

Query string: Further, for N#Cc1cc([N+](=O)[O-])ccc1Oc1cccc(Cl)c1Cl [Example 22] ?
Result string: > 50 µg/mL

Query string: Further, for N#Cc1cc([N+](=O)[O-])ccc1Oc1ccc(Cl)cc1Cl [Example 2] ?
Result string: > 100 µg/mL

Query string: Further, for N#Cc1cc([N+](=O)[O-])ccc1Oc1ccc(Br)cc1 [Example 3, 2-(4-Bromophenoxy)-5-nitrobenzonitrile] ?
Result string: > 100 µg/mL

Query string: Further, for N#Cc1cc([N+](=O)[O-])ccc1Oc1c(Cl)ccc(Cl)c1Cl [Example 31] ?
Result string: > 20 µg/mL

Query string: Further, for N#Cc1cc([N+](=O)[O-])ccc1Oc1c(Cl)cccc1Cl [Example 24] ?
Result string: > 50 µg/mL

Query string: Further, for N#Cc1cc([N+](=O)[O-])ccc1Oc1cc(Cl)cc(Cl)c1 [Example 25] ?
Result string: > 50 µg/mL

Query string: Further, for N#Cc1cc([N+](=O)[O-])ccc1Sc1ccc(Cl)cc1 [Example 12] ?
Result string: 25 µg/mL

Query string: Further, for N#Cc1cc([N+](=O)[O-])ccc1Oc1ccc(Oc2ccccc2)cc1 [Example 5, 2-(4-Phenoxyphenoxy)-5-nitrobenzonitrile] ?
Result string: > 100 µg/mL

Query string: Further, for CSc1ccc(Oc2ccc([N+](=O)[O-])cc2C#N)cc1 [Example 6] ?
Result string: 100 µg/mL

Query string: Further, for N#Cc1cc([N+](=O)[O-])ccc1Oc1ccc(C(=O)c2ccccc2)cc1 [Example 11, 2-(4-Benzoylphenoxy)-5-nitrobenzonitrile] ?
Result string: > 100 µg/mL

Query string: Further, for CC(=O)c1ccc(Oc2ccc([N+](=O)[O-])cc2C#N)cc1 [Example 15, 2-(4-Acetylphenoxy)-5-nitrobenzonitrile] ?
Result string: > 50 µg/mL

Query string: Further, for N#Cc1cc([N+](=O)[O-])ccc1Oc1ccc(Cl)c(Cl)c1 [Example 1] ?
Result string: > 100 µg/mL

Query string: Further, for N#Cc1cc([N+](=O)[O-])ccc1Oc1ccc(Cl)cc1 [Example 4, 2-(4-Chlorophenoxy)-5-nitrobenzonitrile] ?
Result string: > 100 µg/mL

Query string: Further, for N#Cc1cc([N+](=O)[O-])ccc1Oc1cc(Cl)cc(Cl)c1Cl [Example 30] ?
Result string: > 20 µg/mL

Query string: Further, for CCN(CC)S(=O)(=O)c1ccc(Oc2ccc([N+](=O)[O-])cc2C#N)cc1 [Example 10] ?
Result string: > 100 µg/mL

Query string: Further, for N#Cc1cc([N+](=O)[O-])ccc1Oc1c(F)c(F)c(F)c(F)c1F [Example 19] ?
Result string: 12.5 µg/mL

Query string: Further, for C[S+]([O-])c1ccc(Oc2ccc([N+](=O)[O-])cc2C#N)cc1 (stereo not drawn) [Example 7] ?
Result string: 50 µg/mL

Query string: Further, for N#Cc1cc([N+](=O)[O-])ccc1Oc1ccc(Cl)c(Cl)c1Cl [Example 29] ?
Result string: > 20 µg/mL

Query string: Further, for N#Cc1cc([N+](=O)[O-])ccc1Oc1ccccc1C(F)(F)F [Example 26] ?
Result string: ≥ 20 µg/mL

Query string: Further, for N#Cc1cc([N+](=O)[O-])ccc1Oc1cc(Cl)c(Cl)c(Cl)c1 [Example 17] ?
Result string: 10 µg/mL

Query string: Further, for N#Cc1cc([N+](=O)[O-])ccc1Oc1ccc(C(F)(F)F)cc1 [Example 14] ?
Result string: ≥ 50 µg/mL

Query string: Further, for COc1cccc(Oc2ccc([N+](=O)[O-])cc2C#N)c1 [Example 13, 2-(3-Methoxyphenoxy)-5-nitrobenzonitrile] ?
Result string: > 50 µg/mL

###

Could you please report measured X^2 (Single Oral Dose, chi-square of deaths vs virus control) for the items listed next?
- Tested on: Cox A21
- assay.explanation: Single Oral Dose test in mice challenged with Cox A21
- Assay type: in vivo, Swiss male mice
- assay.conditions: po, 600 mg/kg, 3 h

Query string: So what X^2 (Single Oral Dose, chi-square of deaths vs virus control) did CS(=O)(=O)c1ccc(Oc2ccc([N+](=O)[O-])cc2C#N)cc1 [Example 8] get with Cox A21?
Result string: 0.095

Query string: Further, for CSc1ccc(Oc2ccc([N+](=O)[O-])cc2C#N)cc1 [Example 6] ?
Result string: 0.609

Query string: Further, for N#Cc1cc([N+](=O)[O-])ccc1Oc1ccc(Cl)cc1 [Example 4, 2-(4-Chlorophenoxy)-5-nitrobenzonitrile] ?
Result string: 0.252

Query string: Further, for N#Cc1cc([N+](=O)[O-])ccc1Oc1ccc(Oc2ccccc2)cc1 [Example 5, 2-(4-Phenoxyphenoxy)-5-nitrobenzonitrile] ?
Result string: 0.719

Query string: Further, for N#Cc1cc([N+](=O)[O-])ccc1Oc1ccc(Cl)c(Cl)c1 [Example 1] ?
Result string: 5.36

Query string: Further, for N#Cc1cc([N+](=O)[O-])ccc1Oc1ccc(Br)cc1 [Example 3, 2-(4-Bromophenoxy)-5-nitrobenzonitrile] ?
Result string: 2.139

Query string: Further, for N#Cc1cc([N+](=O)[O-])ccc1Oc1ccc(Cl)cc1Cl [Example 2] ?
Result string: 3.659

Query string: Further, for C[S+]([O-])c1ccc(Oc2ccc([N+](=O)[O-])cc2C#N)cc1 (stereo not shown) [Example 7] ?
Result string: 18.94

Query string: Further, for N#Cc1cc([N+](=O)[O-])ccc1Sc1ccc(Cl)cc1 [Example 12] ?
Result string: 4.805

Query string: Further, for N#Cc1cc([N+](=O)[O-])ccc1Oc1ccc(C(=O)c2ccccc2)cc1 [Example 11, 2-(4-Benzoylphenoxy)-5-nitrobenzonitrile] ?
Result string: 0.64
